- ASSAY EXPLANATION: Stability in mouse liver microsomes
- Type: in vitro ADME
MEASUREMENT KIND: percent parent remaining after 60 min in liver microsomes

[[record]]
molecule = "CC(C)(O)Cc1cc(-c2cc(-c3ccc(NS(C)(=O)=O)cc3Cl)sc2F)ccn1"
observed_measurement = "+++ (>60.1 = +++)"

[[record]]
molecule = "CC(C)(CN)c1cc(-c2csc(-c3ccc(NS(C)(=O)=O)cc3Cl)c2)ccn1"
observed_measurement = "+++ (>60.1 = +++)"

[[record]]
molecule = "CC(C)(CO)c1cc(-c2csc(-c3ccc(NS(=O)(=O)C(F)(F)F)cc3Cl)c2)ccn1"
observed_measurement = "++ (30.1-60 = ++)"

[[record]]
molecule = "CC(C)(CO)c1cc(-c2cc(-c3ccc(NC(=O)OC4CC4)cc3Cl)cs2)ccn1"
observed_measurement = "++ (30.1-60 = ++)"


Enquiry: Please indicate percent parent remaining after 60 min in liver microsomes recorded for "CC(C)(CO)c1cc(-c2csc(-c3ccc(NC(=O)N4CCC(O)CC4)cc3Cl)c2)ccn1"
Return: +++ (>60.1 = +++)

Enquiry: Please indicate percent parent remaining after 60 min in liver microsomes recorded for "CS(=O)(=O)Nc1ccc(-c2cc(-c3ccnc(O[C@@H]4CCC[C@@H]4O)c3)cs2)c(Cl)c1"
Return: +++ (>60.1 = +++)

Enquiry: Please indicate percent parent remaining after 60 min in liver microsomes recorded for "CS(=O)(=O)Nc1ccc(-c2cc(-c3ccnc(C4(CO)CC4)c3)cs2)c(Cl)c1"
Return: +++ (>60.1 = +++)

Enquiry: Please indicate percent parent remaining after 60 min in liver microsomes recorded for "CC(C)(O)c1cc(-c2csc(-c3ccc(NS(C)(=O)=O)cc3Cl)c2)ccn1"
Return: +++ (>60.1 = +++)

Enquiry: Please indicate percent parent remaining after 60 min in liver microsomes recorded for "CC(C)S(=O)(=O)c1ccc(-c2cc(-c3ccnc(C(C)(C)C)c3)cs2)cc1"
Return: +++ (>60.1 = +++)

Enquiry: Please indicate percent parent remaining after 60 min in liver microsomes recorded for "CC(C)OC(=O)Nc1ccc(-c2cc(-c3ccnc(OC4CC4)c3)cs2)c(Cl)c1"
Return: +++ (>60.1 = +++)

Enquiry: Please indicate percent parent remaining after 60 min in liver microsomes recorded for "CC(C)OC(=O)Nc1ccc(-c2cc(-c3ccnc(C(C)(C)CO)c3)cs2)c(Cl)c1"
Return: +++ (>60.1 = +++)

Enquiry: Please indicate percent parent remaining after 60 min in liver microsomes recorded for "CN(C(=O)OC1CC1)c1ccc(-c2cc(-c3ccnc(C4(CO)CC4)c3)cs2)c(Cl)c1"
Return: +++ (>60.1 = +++)

Enquiry: Please indicate percent parent remaining after 60 min in liver microsomes recorded for CC(C)(O)C(O)c1cc(-c2csc(-c3ccc(NS(C)(=O)=O)cc3Cl)c2)ccn1 (stereo not shown)
Return: +++ (>60.1 = +++)

Enquiry: Please indicate percent parent remaining after 60 min in liver microsomes recorded for "CC(C)(C#N)c1cc(-c2csc(-c3ccc(NS(C)(=O)=O)cc3Cl)c2)ccn1"
Return: +++ (>60.1 = +++)

Enquiry: Please indicate percent parent remaining after 60 min in liver microsomes recorded for CC(O)(CO)c1cc(-c2csc(-c3ccc(NS(C)(=O)=O)cc3Cl)c2)ccn1 (stereo not shown)
Return: +++ (>60.1 = +++)

Enquiry: Please indicate percent parent remaining after 60 min in liver microsomes recorded for "CC(C)NC(=O)Nc1ccc(-c2cc(-c3ccnc(C(C)(C)C)c3)cs2)c(Cl)c1"
Return: ++ (30.1-60 = ++)
